Where these numbers come from: paper PMC10675445

System: T. brucei BSF parasites
Experiment: BSF viability assay (CellTiter Blue)
Type: cell-based, Trypanosoma brucei brucei
Conditions: Trypanosoma brucei, read-out: T. brucei BSF EC50, HEX with formaldehyde, with 2 molar equivalent formaldehyde
Property label: EC50 (µM)
Express the result in µM but write the number alone.

Kindly state the measured EC50 obtained for O=C1C(P(=O)(O)O)CCCN1O (stereo not shown) [HEX] with T. brucei BSF parasites.
10

###

Target: UniProtKB Q38BV6
Assay: Recombinant TbENO coupled enzyme assay
Assay type: biochemical
Measured IC50 by item
Write down the numeric answer in nM and omit the unit.

Find the recorded IC50 belonging to O=C1C(P(=O)(O)O)CCCN1O (stereo not drawn) [HEX] and report it.
2100

Further cases:
Give the measured IC50 of O=C1C(P(=O)(O)O)CCN1O (stereo not drawn) [Deoxy-SF2312] .
600

###

Molecular target: T. brucei ENO (TbENO) (Trypanosoma brucei brucei)
Sequence (Q38BV6 entry or part of it): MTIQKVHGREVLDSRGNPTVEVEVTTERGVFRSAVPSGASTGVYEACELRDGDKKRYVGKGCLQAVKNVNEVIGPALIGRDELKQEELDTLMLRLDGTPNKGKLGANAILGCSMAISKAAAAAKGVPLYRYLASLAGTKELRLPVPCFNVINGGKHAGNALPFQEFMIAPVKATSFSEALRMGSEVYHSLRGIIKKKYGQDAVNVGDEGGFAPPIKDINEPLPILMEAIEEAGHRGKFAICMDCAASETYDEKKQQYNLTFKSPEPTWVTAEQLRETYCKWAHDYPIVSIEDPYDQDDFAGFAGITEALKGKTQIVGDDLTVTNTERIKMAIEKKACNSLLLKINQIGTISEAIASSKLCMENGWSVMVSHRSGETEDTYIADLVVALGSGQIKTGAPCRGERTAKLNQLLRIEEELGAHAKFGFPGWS
Experiment: Recombinant TbENO coupled enzyme assay
Format: biochemical
Settings: recombinant TbENO ~50 nM, pH 8.0, 15 min preincubation, 3.75 mM 2-PG; read-out: TbENO IC50
Property label: IC50

Worked examples, 3 molecules total:
// IC50 lookup, key: O=C1C(P(=O)(O)O)CCN1OCc1ccccc1 (stereo not shown)
> 10 µM

Tell me the measured IC50 of CC(C)(C)C(=O)OCOP(=O)(OCOC(=O)C(C)(C)C)C1CCCN(O)C1=O (stereo not shown) , please.
2.8 µM

Any idea what IC50 was measured for O=C1C(P(=O)(O)O)CCCN1OCc1ccccc1 (stereo not shown) ?
> 10 µM

Pending molecule:
Consider the molecule O=C1C(P(=O)(O)O)CCCCN1OCc1ccccc1 (stereo not shown) and give its measured IC50.
> 10 µM
